- study-target: Dickkopf-related protein 1 (Homo sapiens)
- assay-details: small molecules binding DKK1 protein – biochemical, small-molecule microarray, 635 nm fluorescence scan, primary screen (AID 1106);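 also: score merges emission near 667 nm with signal to noise over three replicate slides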
- assay-setup: higher = more signal
Classify on composite z-score using zone 1: < -0.3; zone 2: ≥ -0.3 and < 0.3; zone 3: ≥ 0.3

CC(C)C(CO)N1C(=O)[C@@H]2[C@H]3C(=O)OCC=C[C@H]3OC23C=CCN(Cn2nnc4ccccc42)C(=O)[C@@H]13 (stereo not given in full) :: zone 1
CCCC=C(CCC)[C@@H](NS(=O)(=O)CC)c1ccccc1 :: zone 1
O=C1C2C=CC(C(O)c3cccc4ccccc34)N(Nc3ccccc3)C2C(=O)N1c1ccccc1 (stereo not given) :: zone 2

[Q] Band for the recorded composite z-score of O=C1C2C=CC(C(O)c3ccccn3)N(Nc3ccccc3)C2C(=O)N1c1ccccc1 (stereo not given) ?
[A] zone 1

[Q] Band for the recorded composite z-score of `C=C(COC)C(=O)CC[C@H](OC(=O)c1ccccc1-c1ccccc1C(=O)O)c1ccc(CO)o1` ?
[A] zone 3

[Q] Band for the recorded composite z-score of `C=C[C@@H](O)[C@H]1CC(c2ccccc2)=NO1` ?
[A] zone 2

[Q] Band for the recorded composite z-score of `CCOC(=O)C1=CC[C@@H](c2ccc(N(CC)CC)cc2)N(S(=O)(=O)c2ccc(C)cc2)[C@H]1c1ccc([N+](=O)[O-])cc1` ?
[A] zone 1

[Q] Band for the recorded composite z-score of `O=C1O[C@H](c2ccccc2)[C@H](c2ccccc2)N2[C@H]1[C@@H](C(=O)N1CCCCCCC1)[C@]1(C(=O)Nc3ccc(C#CCCO)cc31)[C@H]2c1ccc(OCCO)cc1` ?
[A] zone 3

[Q] Band for the recorded composite z-score of `C=CCN1C(=O)[C@@]2(O[C@@H](CCO)[C@H]([Si](C)(C)c3ccc(OC)cc3)[C@H]2C)c2cc(NC(=O)[C@H](C)O)ccc21` ?
[A] zone 2

[Q] Band for the recorded composite z-score of `COc1ccc(C(=O)Nc2ccc(CN3C(=O)[C@@]4(O[C@@H](CC(=O)N5Cc6ccccc6C[C@H]5CO)[C@H]([Si](C)(C)c5ccc(OC)cc5)[C@H]4C)c4ccccc43)cc2)cc1` ?
[A] zone 3

----------
- assay-details: probe aCHRDL2 binding to arrayed compounds – biochemical, biotinylated probe, 635/667 nm fluorescence, primary screen (AID 1100)
- assay-setup: small-molecule microarray, higher = more signal
measured-metric: composite z-score

Known results for molecules:
CCCc1cc2c(n1Cc1ccc(OC)cc1)C(C)C1CN(C(=O)c3ccccc3)C(C)(C(=O)OC)C21 (centres undefined) :: 1.59
COC(=O)[C@@]1(Cc2ccc(OC)cc2)[C@H]2c3cc(C(=O)N(C)C)n(Cc4cc(C)n(C)n4)c3C[C@H]2CN1C(=O)c1ccccc1 :: 0.433
COC(=O)[C@@]1(Cc2ccccc2)[C@H]2c3cc(C(=O)N(C)C)n(Cc4ccc(O)c(OC)c4)c3C[C@H]2CN1C(=O)c1ccccc1 :: 0.295

[Q] Look up and report measured composite z-score for this entry: CN1C(=O)C2C=CC(C(O)c3cccc4ccccc34)N(NC(=O)OC(C)(C)C)C2C1=O (centres undefined)
[A] 1.43

----------
- assay-details: compound effects on differentiated 3T3-L1 adipocyte viability – cell-based, 3T3-L1 adipocytes, calcein-AM fluorescence, 48 h, basal, profiling panel (AID 1163); also: test concentration not given here
- assay-setup: 3T3-L1 adipocytes viability, higher = more signal
measured-metric: z-score
Answer using only a numeral; do not append any unit.

[Q] Look up and report measured z-score for this entry: `COc1ccc([Si](C)(C)[C@@H]2[C@@H](CCO)O[C@]3(C(=O)N(Cc4ccc(N5C(=O)c6ccccc6Oc6ccccc65)cc4)c4ccccc43)[C@H]2C)cc1`
[A] -0.703

[Q] Look up and report measured z-score for this entry: `C[C@@H]1ON(c2ccccc2)[C@H](c2ccccc2)[C@H]1C(=O)N1C(=O)OC[C@H]1Cc1ccccc1`
[A] 0.701

[Q] Look up and report measured z-score for this entry: `O=C(O)[C@@]1(Cc2ccccc2)COC(c2ccc(OCCCO)cc2)=N1`
[A] 0.139

[Q] Look up and report measured z-score for this entry: `O=C1C[C@@](C(=O)NCc2ccccc2)(c2ccc([N+](=O)[O-])cc2)[C@@H](c2ccc(CO)cc2I)N1C1CCCCC1`
[A] 0.317

Data origin: PubChem BioAssay
